Biological target: T1, ZFP SBS#1380 (synthetic)
T1 chain: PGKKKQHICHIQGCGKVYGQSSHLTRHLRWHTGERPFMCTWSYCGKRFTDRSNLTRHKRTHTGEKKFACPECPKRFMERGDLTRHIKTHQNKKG
Test: EMSA
Details: tags: MBP fusion
quantity: Kd (nM)
Give the quantity in nM, number only.

Q) Any idea what its Kd is? The binder is GCCGACGGT (dsDNA) DNA 1: GCCGACGGT DNA 2: ACCGTCGGC
A) 0.076

The values you see were collected from patent US20030068675.
